- target_of_assay: human recombinant histamine H1 receptor (Homo sapiens, UniProt P35367)
- Sequence (P35367 whole entry): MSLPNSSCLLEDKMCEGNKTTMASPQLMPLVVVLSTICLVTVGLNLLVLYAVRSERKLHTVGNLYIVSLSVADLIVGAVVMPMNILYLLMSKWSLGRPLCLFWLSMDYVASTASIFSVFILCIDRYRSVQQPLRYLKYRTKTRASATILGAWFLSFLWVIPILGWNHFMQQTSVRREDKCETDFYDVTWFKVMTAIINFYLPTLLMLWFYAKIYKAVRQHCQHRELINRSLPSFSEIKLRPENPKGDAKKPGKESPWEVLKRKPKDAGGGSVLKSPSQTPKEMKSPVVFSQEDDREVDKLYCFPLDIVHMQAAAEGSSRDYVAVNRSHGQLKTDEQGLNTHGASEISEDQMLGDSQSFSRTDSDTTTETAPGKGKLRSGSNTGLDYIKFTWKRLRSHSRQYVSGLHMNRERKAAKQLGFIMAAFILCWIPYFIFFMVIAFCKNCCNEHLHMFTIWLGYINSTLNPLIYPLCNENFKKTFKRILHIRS
- protocol_description: Histamine H1 radioligand binding assay
- condition_description: [3H]Pyrilamine specific binding, read-out: Percentage Inhibition, Histamine Binding (1 μM) H1
experimental_endpoint: inhibition at 1 µM
State the result as a value with its unit after it.

Reference set (2 entries):
molecule: Cc1ccc2c(c1)c1c(n2CCc2ccc(C)nc2)CN2CCC1C2 (stereo not drawn) [Compound 12]
target_of_assay: human recombinant histamine H1 receptor (Homo sapiens, UniProt P35367)
experimental_endpoint: inhibition at 1 µM
assay_value: 59%
--
molecule: Cc1ccc2c(c1)c1c(n2CC(C)(O)c2ccc(Cl)cc2)CN2CCC1C2 (stereo not drawn) [Compound 16]
target_of_assay: human recombinant histamine H1 receptor (Homo sapiens, UniProt P35367)
experimental_endpoint: inhibition at 1 µM
assay_value: 20%

# next molecule below
Fill in: human recombinant histamine H1 receptor (Homo sapiens, UniProt P35367) inhibition at 1 µM for C=C(Cn1c2c(c3cc(C)ccc31)C1CCN(C2)C1)c1ccc(F)cc1 (stereo not drawn) [Compound 3] = 59%
